Recorded Total Cell Count for the following compounds
# Test system: Fibroblast
# PROCEDURE_SUMMARY: Multiplex assay against human fibroblast
# Type: toxicity, cell-based
# MEASUREMENT_CONDITIONS: 12 h, 10 µM, compound concentration 10 uM, replicate 1
Just the number, please, no unit after it.

See these solved cases before continuing.
• Nc1nc2c(c(N3CCNCC3)n1)CCC1=C2[C@@H]2CCCC[C@@H]2O1 = 220
• CCOc1cc(N2CCC(O)CC2)ccc1Nc1ncc2c(n1)N(C1CCCC1)CCC(=O)N2C = 291
• CNc1oc(-c2cccc3ccccc23)nc1C#N = 3193

-- ask For CCC(=O)O[C@]1(C(=O)SCF)[C@H](C)C[C@H]2[C@@H]3C[C@H](F)C4=CC(=O)C=C[C@]4(C)[C@@]3(F)[C@@H](O)C[C@@]21C [FLUTICASONE PROPIONATE] , what is its reported Total Cell Count?
-- reply 149

-- ask // lookup Total Cell Count for "CC(C)(C)c1cnc(CSc2cnc(NC(=O)C3CCNCC3)s2)o1"
-- reply 207
